experimental.system: UniProt:P0A0I7
experiment.notes: cell-based
Parameters: species or system S. aureus USA300 strain UAMS-1625
condition.details: 40 mg/mL HSA vs without HSA
readout: Ratio IC50 (in presence of HSA)/IC50 (in absence of HSA)

molecule	observed.value
Cc1ccc(S(=O)(=O)c2nnn3c2[nH]c(=O)c2ccc(N4CCN(C(C)(C)C)CC4)cc23)c(C)c1	+++ (ratio ≤ 25)
Cc1ccc(S(=O)(=O)c2nnn3c2[nH]c(=O)c2ccc(N4CCN(C5COC5)CC4)cc23)c(C)c1	++ (ratio ≤ 125)
Cc1ccc(S(=O)(=O)c2nnn3c2[nH]c(=O)c2ccc(N4CCN(CC(F)(F)F)CC4)cc23)c(C)c1	++ (ratio ≤ 125)
Cc1ccc(S(=O)(=O)c2nnn3c2[nH]c(=O)c2ccc(N4CC(C)N(C)C(C)C4)cc23)c(C)c1 (stereo not shown)	+++ (ratio ≤ 25)
Cc1ccc(S(=O)(=O)c2nnn3c2[nH]c(=O)c2ccc(N4CCN5CCOCC5C4)cc23)c(C)c1 (stereo not shown)	+++ (ratio ≤ 25)

stdin: Query (molecule): "Cc1ccc(S(=O)(=O)c2nnn3c2[nH]c(=O)c2ccc(N4CC5(COC5)C4)cc23)c(C)c1" ; field requested: Ratio IC50 (in presence of HSA)/IC50 (in absence of HSA)
stdout: ++ (ratio ≤ 125)

stdin: And the next one, "Cc1ccc(S(=O)(=O)c2n[nH]n3c2nc(=O)c2ccc(N4CCC5(CCN(C)CC5)CC4)cc23)c(C)c1" ?
stdout: +++ (ratio ≤ 25)

====

experimental.system: AgrA (Staphylococcus aureus, UniProt P0A0I7)
Sequence (P0A0I7 whole entry): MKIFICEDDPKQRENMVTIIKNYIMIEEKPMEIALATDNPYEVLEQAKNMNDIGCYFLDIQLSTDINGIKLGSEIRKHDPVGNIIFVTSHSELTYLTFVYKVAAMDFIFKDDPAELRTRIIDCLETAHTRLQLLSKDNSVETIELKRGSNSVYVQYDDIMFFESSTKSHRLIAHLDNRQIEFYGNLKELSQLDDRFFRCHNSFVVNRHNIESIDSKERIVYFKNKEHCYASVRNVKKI
experiment.notes: cell-based
Design: species or system S. aureus USA300 strain UAMS-1625
condition.details: IC50 at 40 mg/mL HSA, LB medium supplemented with 40 mg/mL human serum albumin
Attribute: IC50

compound	readout	observed.value
Cc1ccc(S(=O)(=O)c2nnn3c2[nH]c(=O)c2ccc(N4CCC5(CNCCO5)C4)cc23)c(C)c1 (stereo not drawn)	IC50	< 20.2 µM
Cc1ccc(S(=O)(=O)c2nnn3c2[nH]c(=O)c2ccc(N4CCN5CCC[C@H]5C4)cc23)c(C)c1	IC50	20.9 to 104 µM
Cc1ccc(S(=O)(=O)c2nnn3c2[nH]c(=O)c2ccc(N4CCN(C(C)(C)C)CC4)cc23)c(C)c1	IC50	20.2 to 101 µM
Cc1ccc(S(=O)(=O)c2nnn3c2[nH]c(=O)c2ccc(N4CCC5C(CCN5C)C4)cc23)c(C)c1 (stereo not drawn)	IC50	20.3 to 102 µM
Cc1ccc(S(=O)(=O)c2n[nH]n3c2nc(=O)c2ccc(N4CCC5(CC4)CN(C)CCO5)cc23)c(C)c1	IC50	19.1 to 95.7 µM
Cc1ccc(S(=O)(=O)c2nnn3c2[nH]c(=O)c2ccc(N4CCN(C)C(=O)C4)cc23)c(C)c1	IC50	21.4 to 107 µM
Cc1ccc(S(=O)(=O)c2nnn3c2[nH]c(=O)c2ccc(N4CCC(N)CC4)cc23)c(C)c1	IC50	< 22.1 µM
Cc1ccc(S(=O)(=O)c2nnn3c2[nH]c(=O)c2ccc(N4CCN5CCCC5C4)cc23)c(C)c1 (stereo not drawn)	IC50	20.9 to 104 µM

stdin: I'm curious: which IC50 was measured for "Cc1ccc(S(=O)(=O)c2nnn3c2[nH]c(=O)c2ccc(N4CCOC5(CN(C)C5)C4)cc23)c(C)c1" tested on AgrA (Staphylococcus aureus, UniProt P0A0I7)?
stdout: 20.2 to 101 µM

The reported numbers originate from patent US20250213575A1.
